molecular target: SIRT1 (Homo sapiens); assay: Mass spectrometry based assay to identify modulators of SIRT1 activity (deacetylation of p53-based acetylated peptide substrate); type: biochemical; settings: SIRT1 activation
Sequence (Q96EB6 whole entry): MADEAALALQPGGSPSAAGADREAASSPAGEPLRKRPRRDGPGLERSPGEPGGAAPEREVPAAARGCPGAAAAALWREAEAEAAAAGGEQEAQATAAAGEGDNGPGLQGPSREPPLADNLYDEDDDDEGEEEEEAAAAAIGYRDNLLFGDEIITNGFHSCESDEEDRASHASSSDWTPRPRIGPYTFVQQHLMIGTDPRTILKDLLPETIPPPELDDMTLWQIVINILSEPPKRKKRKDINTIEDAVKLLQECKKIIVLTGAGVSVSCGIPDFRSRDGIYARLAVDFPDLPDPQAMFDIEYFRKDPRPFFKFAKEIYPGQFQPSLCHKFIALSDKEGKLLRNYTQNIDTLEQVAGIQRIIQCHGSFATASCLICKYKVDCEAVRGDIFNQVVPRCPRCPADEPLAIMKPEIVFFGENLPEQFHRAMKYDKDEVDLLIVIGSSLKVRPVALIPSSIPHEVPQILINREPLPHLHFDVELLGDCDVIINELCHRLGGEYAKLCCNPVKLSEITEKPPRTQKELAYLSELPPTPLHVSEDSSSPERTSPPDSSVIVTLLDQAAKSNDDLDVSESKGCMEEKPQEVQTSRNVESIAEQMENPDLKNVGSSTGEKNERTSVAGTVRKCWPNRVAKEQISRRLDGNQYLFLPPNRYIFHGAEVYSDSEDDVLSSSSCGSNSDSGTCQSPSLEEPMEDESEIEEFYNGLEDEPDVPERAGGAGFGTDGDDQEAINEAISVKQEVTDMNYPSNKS
Assay endpoint: EC1.5

O=C(Nc1ccnc(N2CCCC2)c1)N1CCOc2ccc(-c3cccc(C(F)(F)F)c3)nc21; A (EC1.5<1.0 μM)
Cc1cc(NC(=O)N2CCOc3ccc(-c4cc(C)nn4C)nc32)cc(C)n1; B (EC1.5 1-25 μM)
Cc1ccc(-c2ccc3c(n2)N(C(=O)Nc2nc(C)cs2)CCCO3)cn1; B (EC1.5 1-25 μM)
O=C(Nc1ccncn1)N1CCOc2ccc(-c3cccc(C(F)(F)F)c3)nc21; A (EC1.5<1.0 μM)
CN1C(=O)CN(C(=O)Nc2ncn[nH]2)c2nc(-c3cccc(C(F)(F)F)c3)ccc21; C (EC1.5>25 μM)

Q: Quick one: give measured EC1.5 for O=C(Nc1ccnc(N2CCC2)c1)N1CCCc2ccc(-c3cccc(C(F)(F)F)c3)nc21
Ans: A (EC1.5<1.0 μM)
